Target: Carbonic anhydrase 2 (Homo sapiens)
Assay: Dissociation constant against human carbonic anhydrase II at 37 degree Centigrade
readout.name: Kd (nM)
Answers are plain numbers, in nM.

>  <compound>
NS(=O)(=O)c1ccc(C(=O)NC(Cc2ccc3ccccc3c2)C(=O)O)cc1 (stereo not given)

>  <readout.name>
Kd

>  <value.observed>
17

$$$$

For each entry beneath this line, provide reported Kd.
1. NS(=O)(=O)c1ccc(C(=O)NCC(=O)NCC(=O)NCC(=O)N2CCC[C@H]2C(=O)O)cc1
2. NS(=O)(=O)c1ccc(C(=O)NCC(=O)NC(Cc2ccc([N+](=O)[O-])cc2)C(=O)O)cc1 (stereo not given)
3. NS(=O)(=O)c1ccc(C(=O)NCC(=O)NCC(=O)O)cc1
4. NS(=O)(=O)c1ccc(C(=O)NC(CC(=O)O)C(=O)O)cc1 (stereo not given)
5. NS(=O)(=O)c1ccc(C(=O)NCC(=O)NC(CO)C(=O)O)cc1 (stereo not given)
6. N=C(N)NCCC[C@H](NC(=O)CNC(=O)CNC(=O)CNC(=O)c1ccc(S(N)(=O)=O)cc1)C(=O)O
7. CC(C)(C)[C@H](NC(=O)CNC(=O)CNC(=O)CNC(=O)c1ccc(S(N)(=O)=O)cc1)C(=O)O

Solution:
[330, 150, 290, 1100, 280, 290, 210]

====

Target: Carbonic anhydrase 2 (Homo sapiens, UniProt P00918)
Assay: Dissociation constant against human carbonic anhydrase II at 37 degree Centigrade
Please respond with reported Kd for every item in the list.
Give bare numbers, in nM.

>  <molecule>
NC(=O)C[C@H](NC(=O)CNC(=O)CNC(=O)CNC(=O)c1ccc(S(N)(=O)=O)cc1)C(=O)O

>  <assay.target>
Carbonic anhydrase 2 (Homo sapiens, UniProt P00918)

>  <readout.name>
Kd

>  <units.symbol>
nM

>  <value.observed>
290

$$$$
>  <molecule>
NS(=O)(=O)c1ccc(C(=O)NCC(=O)NCC(=O)NCC(=O)N[C@@H](CCC(=O)O)C(=O)O)cc1

>  <assay.target>
Carbonic anhydrase 2 (Homo sapiens, UniProt P00918)

>  <readout.name>
Kd

>  <units.symbol>
nM

>  <value.observed>
371

$$$$
>  <molecule>
NS(=O)(=O)c1ccc(C(=O)NCC(=O)NC(CCC(=O)O)C(=O)O)cc1 (stereo not drawn)

>  <assay.target>
Carbonic anhydrase 2 (Homo sapiens, UniProt P00918)

>  <readout.name>
Kd

>  <units.symbol>
nM

>  <value.observed>
500

$$$$
>  <molecule>
NC(=O)CC(NC(=O)CNC(=O)c1ccc(S(N)(=O)=O)cc1)C(=O)O (stereo not drawn)

>  <assay.target>
Carbonic anhydrase 2 (Homo sapiens, UniProt P00918)

>  <readout.name>
Kd

>  <units.symbol>
nM

>  <value.observed>
290

$$$$
>  <molecule>
CC(C)CC(NC(=O)c1ccc(S(N)(=O)=O)cc1)C(=O)O (stereo not drawn)

>  <assay.target>
Carbonic anhydrase 2 (Homo sapiens, UniProt P00918)

>  <readout.name>
Kd

>  <units.symbol>
nM

>  <value.observed>
9

$$$$
>  <molecule>
CC(C)(C)C(NC(=O)c1ccc(S(N)(=O)=O)cc1)C(=O)O (stereo not drawn)

>  <assay.target>
Carbonic anhydrase 2 (Homo sapiens, UniProt P00918)

>  <readout.name>
Kd

>  <units.symbol>
nM

>  <value.observed>
9

$$$$
>  <molecule>
COc1ccc(C[C@H](NC(=O)CNC(=O)CNC(=O)CNC(=O)c2ccc(S(N)(=O)=O)cc2)C(=O)O)cc1

>  <assay.target>
Carbonic anhydrase 2 (Homo sapiens, UniProt P00918)

>  <readout.name>
Kd

>  <units.symbol>
nM

>  <value.observed>
170

$$$$
>  <molecule>
CC(NC(=O)c1ccc(S(N)(=O)=O)cc1)C(=O)O (stereo not drawn)

>  <assay.target>
Carbonic anhydrase 2 (Homo sapiens, UniProt P00918)

>  <readout.name>
Kd

>  <units.symbol>
nM

>  <value.observed>
120

$$$$

For each entry beneath this line, provide reported Kd.
1. CC(C)C[C@H](NC(=O)CNC(=O)CNC(=O)c1ccc(S(N)(=O)=O)cc1)C(=O)O
2. CSCCC(NC(=O)c1ccc(S(N)(=O)=O)cc1)C(=O)O (stereo not drawn)
3. NS(=O)(=O)c1ccc(C(=O)NC(Cc2ccc(F)cc2)C(=O)O)cc1 (stereo not drawn)
4. NC(=O)CCC(NC(=O)CNC(=O)c1ccc(S(N)(=O)=O)cc1)C(=O)O (stereo not drawn)
5. CC(C)C[C@H](NC(=O)CNC(=O)CNC(=O)CNC(=O)c1ccc(S(N)(=O)=O)cc1)C(=O)O

Solution:
[210, 10, 17, 240, 210]
